Sourced from patent US20250027068

assay_target: pooled human IgG (human IgG1, 2, 3 and 4)
test_readout: Enzyme Activity Endpoint Assay (purified): IgG (ng/µL)
Express the result in ng/µL but write the number alone.

# protein, test_result
measured = [
    ("PRT-687 (protein) MQITSVWTKGVTPLTPEQFRYNNEDVIHAPYKPHQGWYDITKTFNGKDNLLCGAATAGNMLHWWFDQNKTEIEAYLKKYPEKQKIIFNNQKLFDLRKAINTKDSQTNSALFNYFRDKAFPNLSARQLGVMPDLVLDMFINGYYLNVFKTQSTDVNRPYQTRDKRGGIFDHVFGRGDQTTLLTARHDLKNKTLNEISQIIKQELSEGKALALSHTYANVSISHVINLWGADFNAEGNLEAIYVTDSDANAKIGMKKYYVGKNAHGKVAISAKKIEGENIGAQVLGLFTLSSGKDIWQKLSLEHHHHHH", 0),
]

Turning to the following protein.
Asked: Given the entry PRT-651 (protein) MQITSVWTKGVTPLTPEQFRYNNEDVIHAPYLAHQGWYDITKAFDGKDNLLCGAATAGNMLHWWFDQNKTEIEAYLSKHPEKQKIIFNNQELFDLKAAIDTKDSQTNSQLFNYFRDKAFGNLSARQLGVMPDLVLDMFINGYYLNVGKTQSTDVNRPYQTRDKRGGIFDAVFTRGDQTTLLTARHDLKNKGLNDISTIIKQELTEGRALALSHTYANVSISHVINLWGADFNAEGNLEAIYVTDSDANASIGMKKYFVGINAHGHVAISAKKIEGENIGAQVLGLFTLSSGKDIWQKLSLEHHHHHH , report its measured Enzyme Activity Endpoint Assay (purified): IgG.
Given back: 168
